STUDY_TARGET: D(3) dopamine receptor (Homo sapiens)
Sequence (P35462 whole entry): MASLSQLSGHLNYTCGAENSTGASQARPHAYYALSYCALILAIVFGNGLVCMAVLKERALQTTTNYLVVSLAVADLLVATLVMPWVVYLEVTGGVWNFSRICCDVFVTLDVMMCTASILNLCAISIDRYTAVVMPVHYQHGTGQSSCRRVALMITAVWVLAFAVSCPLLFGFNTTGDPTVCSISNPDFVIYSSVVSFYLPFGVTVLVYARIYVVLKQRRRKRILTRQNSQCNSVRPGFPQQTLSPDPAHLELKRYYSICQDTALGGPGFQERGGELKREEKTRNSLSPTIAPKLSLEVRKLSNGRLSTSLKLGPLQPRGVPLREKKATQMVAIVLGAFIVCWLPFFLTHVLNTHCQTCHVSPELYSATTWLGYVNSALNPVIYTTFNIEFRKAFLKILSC
MEASUREMENT_PROTOCOL: Displacement of [125I]IABN from recombinant human D3 receptor stably expressed in HEK293 cell membranes measured after 60 mins by scintillation counting analysis
// values below are reported Ki
Field format: number, assumed µM, no unit text.

Solved cases below.
COc1ccccc1-c1nnc(SCCCN2CCC3(CC2)CCN(c2ccccc2OC)CC3)n1C 0.063
COc1ccccc1N1CCC2(CCN(CCCSc3nnc(-c4cccnc4)n3C)CC2)CC1 0.213
COc1ccccc1N1CCC2(CCN(CCCSc3nnc(-c4ccc(F)cc4)n3C)CC2)CC1 0.0398
Cn1c(SCCCN2CCC3(CC2)CCN(c2ccccc2O)CC3)nnc1-c1ccccc1 0.396

Now let's try a different one.
# input Quick one: Ki of "Cn1c(SCCCN2CCC(C)(C)CC2)nnc1-c1ccccc1" ?
# output 0.631

###

STUDY_TARGET: 5-hydroxytryptamine receptor 2C (Homo sapiens)
Sequence (P28335 whole entry): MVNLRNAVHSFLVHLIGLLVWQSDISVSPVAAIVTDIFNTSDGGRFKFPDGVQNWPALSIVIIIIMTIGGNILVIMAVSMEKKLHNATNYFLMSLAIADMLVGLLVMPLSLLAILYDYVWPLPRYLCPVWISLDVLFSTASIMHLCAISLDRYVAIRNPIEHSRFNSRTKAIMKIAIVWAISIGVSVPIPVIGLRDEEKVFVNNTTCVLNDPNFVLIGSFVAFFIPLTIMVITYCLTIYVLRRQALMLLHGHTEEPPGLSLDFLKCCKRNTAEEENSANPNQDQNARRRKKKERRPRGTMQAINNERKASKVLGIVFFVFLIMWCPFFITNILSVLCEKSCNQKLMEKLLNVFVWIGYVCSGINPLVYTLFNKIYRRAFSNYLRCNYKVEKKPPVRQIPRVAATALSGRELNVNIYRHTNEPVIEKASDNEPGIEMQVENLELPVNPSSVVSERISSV
MEASUREMENT_PROTOCOL: Displacement of [3H]-mesulergine from recombinant human 5HT2C receptor transiently expressed in HEKT cell membranes measured after 90 mins by microbeta scintillation counting method
PARAMETER: Ki (nM)
The answer is to be given in nM; state only the numeric part.

# input Give the measured Ki of "COc1ccccc1N1CCN(CCCSc2nnc(-c3ccccc3)n2C)CC1" .
# output 159

###

STUDY_TARGET: D(4) dopamine receptor (Homo sapiens, UniProt P21917)
Sequence (P21917 whole entry): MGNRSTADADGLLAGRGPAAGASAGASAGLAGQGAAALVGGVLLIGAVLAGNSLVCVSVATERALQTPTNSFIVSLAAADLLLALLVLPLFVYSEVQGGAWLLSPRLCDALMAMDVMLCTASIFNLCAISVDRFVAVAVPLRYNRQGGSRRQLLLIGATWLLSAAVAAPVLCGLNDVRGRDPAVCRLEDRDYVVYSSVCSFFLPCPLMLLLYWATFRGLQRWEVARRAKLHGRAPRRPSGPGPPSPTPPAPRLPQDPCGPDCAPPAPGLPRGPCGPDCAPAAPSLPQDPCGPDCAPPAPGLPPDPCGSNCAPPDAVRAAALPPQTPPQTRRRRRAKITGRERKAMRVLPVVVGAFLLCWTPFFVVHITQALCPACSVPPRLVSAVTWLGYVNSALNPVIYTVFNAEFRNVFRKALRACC
MEASUREMENT_PROTOCOL: Displacement of [3H]N-methylspiperone from recombinant human D4 receptor stably expressed in HEK cell membranes measured after 90 mins by microbeta scintillation counting method
PARAMETER: Ki (nM)
Answer with a number only, understood to be in nM.

# input Could you share what Ki was measured for "COc1ccccc1N1CCN(CCCSc2nnc(-c3ccccc3)n2C)CC1" , tested on D(4) dopamine receptor (Homo sapiens, UniProt P21917)?
# output 721
